Listed below: % Inhibition values for each entry.
- Test system: P. falciparum stage V gametocytes
- Set-up: BacTiter-Glo ATP luminescence viability of purified stage V gametocytes in 384-well plates, per cent inhibition versus DMSO
- Reported conditions: 48 h, 5 µM; inhibitor
Hit rate of the full screen: of about 13,000 compounds, about 3,200 (25%) showed an effect of 50% or more. This is one part of the list.
Kindly provide the numeric value in % only, without the unit symbol.

Prompt: // returns reported % Inhibition for input CC(C)(CNCc1ccc(F)c(F)c1)c1nc(-c2ccc(Cl)c(O)c2)c(-c2ccncc2)[nH]1
Completion: -67.6

Prompt: Field entry: COc1ccc(CNCC(C)(C)c2nc(-c3ccc(Cl)c(O)c3)c(-c3ccncc3)[nH]2)cc1
Completion: -60.58

Prompt: Field entry: COc1cc(C=CC(=O)N2CCC(CCN3CCC(c4c[nH]c5ccccc45)CC3)CC2)cc(OC)c1
Completion: 103.2

Prompt: Field entry: CC(C)(CNCc1ccc(Cl)c(Cl)c1)c1nc(-c2ccc(Cl)c(O)c2)c(-c2ccncc2)[nH]1
Completion: 78.8
